System: UACC-257 melanoma
Assay: NCI tumour cell line growth inhibition, 48 h
Reported property: TGI (µM)
Give the number; µM is assumed, so skip it.

[Q] What value of TGI has been recorded for this entry: CC(C)[Si](OC1=C(C(=O)N(C)c2cccc(Cl)c2)CCCC1)(C(C)C)C(C)C
[A] 27.8

[Q] What value of TGI has been recorded for this entry: Cn1c(=O)c(C(c2ccc([N+](=O)[O-])cc2)c2c(O)c3ccccc3n(C)c2=O)cc2ccccc21 (configuration not stated)
[A] 45.3

[Q] What value of TGI has been recorded for this entry: COC(=O)[C@H](C)NC(=O)NC(=O)NC(=O)CI
[A] 29.9

[Q] What value of TGI has been recorded for this entry: CC(C)(C)c1cc(Br)c(O)c(CN(Cc2cc(C(C)(C)C)cc(Br)c2O)C2CCCCC2)c1
[A] 16.5

[Q] What value of TGI has been recorded for this entry: O=C1CCC(c2ccc(Cl)cc2)=NN1c1nsc2ccccc12
[A] 68.8

[Q] What value of TGI has been recorded for this entry: Cc1cc(S(=O)(=O)Nc2nnc(-c3ccccc3)c(-c3ccccc3)n2)c(SCC(N)=O)cc1Cl
[A] 97.6

[Q] What value of TGI has been recorded for this entry: CN1C/C=C\CCOc2cccc(c2)-c2ccnc(n2)Nc2cccc(c2)C1
[A] 0.371

[Q] What value of TGI has been recorded for this entry: CC(C)(C)OC(=O)NC(Cc1ccc(OCc2ccccc2)cn1)C(=O)N1CCCCC1 (configuration not stated)
[A] 47.3

[Q] What value of TGI has been recorded for this entry: CCOC(=O)c1cc(C(O)P2(=O)N(CC(C)(C)C)[C@@H]3CCCC[C@H]3N2CC(C)(C)C)cn1C(=O)OC(C)(C)C (some centres not stated)
[A] 28.7

----------
Test system: HOP-62 NSCLC
Test: NCI tumour cell line growth inhibition, 48 h
# GI50 listing for each entry below

{"columns": ["Compound string", "Measurement target", "GI50"],
 "data": [
  ["CCOC(=O)c1c(C)n(Cc2ccc(Cl)cc2Cl)c2c1c(CN(C)C)c(O)c1[nH]cnc12", "HOP-62 NSCLC", "12800 nM"],
  ["CCCCCCCC/C=C/CCCCCCCC(=O)OC[C@H]1O[C@@H](n2ccc(N)nc2=O)C(F)(F)[C@@H]1O", "HOP-62 NSCLC", "< 20.9 nM"],
  ["COc1cc2nc3cc([N+](=O)[O-])ccc3c(NCCCNCCO)c2cc1OC", "HOP-62 NSCLC", "146 nM"],
  ["N=C1C(c2nc3ccccc3s2)=C(O)CN1c1cc(C(F)(F)F)ccc1Cl", "HOP-62 NSCLC", "18400 nM"]
]}

[Q] What value of GI50 has been recorded for this entry: CC(C)n1nc(-c2cc3cc(O)ccc3[nH]2)c2c(N)ncnc21
[A] 393 nM

----------
# TGI listing for each entry below
System: SF-295 CNS
Test: NCI tumour cell line growth inhibition, 48 h
Where a SMILES comes first, the peptide text is derived from it. [ ]: non-standard residue; d: D form. The star is where a group is joined. NMeF = CN[CH](Cc1ccccc1)C(=O)O; NMeV = CN[CH](C(=O)O)C(C)C; Boc = CC(C)(C)OC(=O)*

Below, 5 compounds whose answers are already recorded.
{"columns": ["Compound", "Experimental value"],
 "data": [
  ["CC(C)C(NC(=O)OC(C)(C)C)C(=O)N(C)C(Cc1ccccc1)C(=O)N(C)C(C(=O)O)C(C)C (stereo not drawn) (Boc-Val-[NMeF]-[NMeV]-OH; configuration not given here)", "> 100 µM"],
  ["CC1(C)NC2C(=O)c3c([nH]c4ccccc34)[C@]3(C)CCC1CC23 (stereo partly drawn)", "> 100 µM"],
  ["COc1cc(C(C)O)c[n+](CCc2c[nH]c3ccccc23)c1 (stereo not drawn)", "> 100 µM"],
  ["Cn1cc(NC(=O)c2cc(NC(=O)CN=C(N)N)cn2C)cc1C(=O)NCCC(=N)N", "> 100 µM"],
  ["Cc1ccc2c(c1)C(C(=O)N[C@@H]1C(=O)N3[C@@H]1SC(C)(C)[C@@H]3C(=O)O)OCCC2 (stereo partly drawn)", "> 100 µM"]
]}

[Q] What value of TGI has been recorded for this entry: CCOCc1nc2c(OC)cc(-c3nc4ccc(N5CCN(C)CC5)cc4[nH]3)c(OC)c2[nH]1
[A] 36.8 µM

[Q] What value of TGI has been recorded for this entry: CCCCCCCC/C=C/CCCCCCCC(=O)OC[C@H]1O[C@@H](n2ccc(N)nc2=O)C(F)(F)[C@@H]1O
[A] 0.555 µM

[Q] What value of TGI has been recorded for this entry: O=c1cc(-c2ccc(F)cc2)[nH]c2ncc(Cl)cc12
[A] 78.5 µM
